assayed target: MMP-2 (Homo sapiens, UniProt P08253)
Sequence (P08253 110-446 limits assumed): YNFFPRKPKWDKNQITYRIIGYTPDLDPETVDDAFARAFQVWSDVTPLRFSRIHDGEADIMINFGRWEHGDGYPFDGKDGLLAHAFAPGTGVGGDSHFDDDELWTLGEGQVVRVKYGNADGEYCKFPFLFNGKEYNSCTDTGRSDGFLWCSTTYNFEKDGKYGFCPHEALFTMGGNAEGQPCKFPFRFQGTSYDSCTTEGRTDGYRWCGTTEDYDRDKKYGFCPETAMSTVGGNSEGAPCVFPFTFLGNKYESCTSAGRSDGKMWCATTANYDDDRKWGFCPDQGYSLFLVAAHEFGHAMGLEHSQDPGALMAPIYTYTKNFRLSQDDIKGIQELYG
readout name: IC50 (nM)
The figure you give is taken to be in nM; do not add the unit.

Find IC50 (MMP-2 (Homo sapiens, UniProt P08253)) for the entry COc1ccc(S(=O)(=O)N(CC(=O)NO)CC(C)C)cc1
299

----------
assayed target: MMP-9 (Homo sapiens, UniProt P14780)
Sequence (P14780 94-707): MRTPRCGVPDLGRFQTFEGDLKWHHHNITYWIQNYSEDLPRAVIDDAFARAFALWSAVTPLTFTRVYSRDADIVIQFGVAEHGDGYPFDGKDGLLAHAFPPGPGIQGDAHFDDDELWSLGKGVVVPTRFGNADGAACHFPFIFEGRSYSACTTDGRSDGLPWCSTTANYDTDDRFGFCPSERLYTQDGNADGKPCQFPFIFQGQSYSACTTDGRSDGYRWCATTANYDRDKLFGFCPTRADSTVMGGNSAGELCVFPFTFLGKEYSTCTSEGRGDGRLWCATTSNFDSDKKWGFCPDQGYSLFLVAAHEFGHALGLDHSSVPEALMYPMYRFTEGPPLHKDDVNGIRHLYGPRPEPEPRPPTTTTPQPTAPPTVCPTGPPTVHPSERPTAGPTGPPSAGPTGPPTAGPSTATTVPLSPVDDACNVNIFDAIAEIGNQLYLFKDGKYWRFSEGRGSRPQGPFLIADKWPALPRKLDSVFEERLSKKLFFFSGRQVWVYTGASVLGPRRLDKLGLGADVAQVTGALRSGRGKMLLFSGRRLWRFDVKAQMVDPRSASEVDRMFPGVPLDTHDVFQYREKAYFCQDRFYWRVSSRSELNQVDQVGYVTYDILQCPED
readout name: pIC50
Keep in mind that pIC50 stands for -log10 of concentration in molar terms.

Can you share its pIC50? I mean this molecule: COc1ccc(S(=O)(=O)N(CC(=O)NO)CC(C)C)cc1
6.56

Sourced from paper PMC11967334
